Numbers sourced from the supplement of paper PMC3334620.

# targetDesc: Msn1 (UniProt P22148)
# Sequence: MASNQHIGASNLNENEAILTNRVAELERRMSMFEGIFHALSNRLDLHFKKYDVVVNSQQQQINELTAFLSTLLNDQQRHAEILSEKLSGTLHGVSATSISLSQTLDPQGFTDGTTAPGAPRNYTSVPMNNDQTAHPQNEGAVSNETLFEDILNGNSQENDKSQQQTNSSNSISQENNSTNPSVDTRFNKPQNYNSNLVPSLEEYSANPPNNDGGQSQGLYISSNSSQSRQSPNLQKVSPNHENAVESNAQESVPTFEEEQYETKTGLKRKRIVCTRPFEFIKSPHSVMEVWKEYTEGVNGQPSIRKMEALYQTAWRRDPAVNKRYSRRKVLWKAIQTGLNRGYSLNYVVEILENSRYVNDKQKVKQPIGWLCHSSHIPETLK
# testDetails: PBM E-score (8-mer binding enrichment) (E-score (-0.5 to 0.5)); higher = stronger / more preferred TF binding
# runParameters: protein concentration: 200 nM; construct: GST-full length
Whole data set: some 33,000 sequences, median “E-score (-0.5 to 0.5)” near -0.013, cut for the highest 2% near 0.3. The sample holds the highest values, similar sequences and a random draw of the others, so the mix is not that of the screen.
resultType: PBM E-score
Enter the number alone.

Input: # PBM E-score lookup, item "ACTAACGC"
Output: -0.108

Input: What value of PBM E-score has been recorded for this entry: "ATTAAAAC"
Output: 0.156

Input: Which PBM E-score is listed for "CGAGGTAG" ?
Output: -0.251

Input: Tell me the measured PBM E-score of "ACAACGGG" , please.
Output: 0.161

Input: Look up PBM E-score: "AACATAAA"
Output: 0.0678

Input: Quick one: PBM E-score for "ATCCAGGA" ?
Output: -0.015

Input: // PBM E-score lookup, key: "ACAAACGG"
Output: 0.298

Input: So what does the record say about PBM E-score for "ACAAAAAG" ?
Output: 0.216

Input: Fill in: PBM E-score of "AGCGAATG" is ___
Output: -0.207

Input: I have this sequence here, "AACATAAC" , and I need its recorded PBM E-score.
Output: 0.0281

====

# targetDesc: Msn1 (UniProt P22148)
# Sequence: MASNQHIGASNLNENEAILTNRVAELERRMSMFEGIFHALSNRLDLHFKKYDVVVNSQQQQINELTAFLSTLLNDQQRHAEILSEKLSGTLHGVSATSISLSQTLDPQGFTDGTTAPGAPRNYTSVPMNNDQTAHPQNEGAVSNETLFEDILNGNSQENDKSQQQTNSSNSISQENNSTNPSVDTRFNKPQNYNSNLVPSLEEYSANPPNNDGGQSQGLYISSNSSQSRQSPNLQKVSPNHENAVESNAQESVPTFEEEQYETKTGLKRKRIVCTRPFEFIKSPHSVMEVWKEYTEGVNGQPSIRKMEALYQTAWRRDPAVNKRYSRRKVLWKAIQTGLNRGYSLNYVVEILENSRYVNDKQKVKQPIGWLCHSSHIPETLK
# testDetails: PBM E-score (8-mer binding enrichment) (E-score (-0.5 to 0.5)); higher = stronger / more preferred TF binding
# runParameters: protein concentration: 200 nM; construct: GST-full length
Whole data set: some 33,000 sequences, median “E-score (-0.5 to 0.5)” near -0.013, cut for the highest 2% near 0.3. For the sample, the highest values were picked, then their nearest neighbours and some sequences at random.
resultType: PBM E-score
Provide a numeric answer; units are not to be included.

Input: Look at this sequence and give its reported PBM E-score. "ACGCTGGG"
Output: -0.406

Input: Please report the recorded PBM E-score for "GATTTGGC" .
Output: -0.221

Input: Param item = "ATGTCTTC" ; retrieve measured PBM E-score.
Output: 0.293

Input: If you can, please state the reported PBM E-score value of "CACATCCC" .
Output: -0.14

Input: Please look up its PBM E-score: "ACGAGGAT"
Output: -0.178

Input: Using the record for "ACGGTTCT" , report its PBM E-score.
Output: -0.0415

Input: Which PBM E-score is reported for this sequence? "CACATGCC"
Output: 0.0209

Input: Fill in the blank: the reported PBM E-score of "GATATGTA" is ____.
Output: 0.12

Input: Please give the measured PBM E-score for this sequence: "ATAGACAT"
Output: 0.428

Input: Name the reported PBM E-score value associated with the sequence "ATGTCTTG"
Output: 0.35

Input: Can you look up the measured PBM E-score of "CTGCTACC" for me?
Output: -0.0604

Input: Consider the sequence shown here: "GTGTCTGA" What is its recorded PBM E-score?
Output: 0.185

Input: I have this sequence here, "GACATGAA" , and I need its recorded PBM E-score.
Output: 0.308

Input: Returns the measured PBM E-score for the input sequence. Input: "ATGTCTTA"
Output: 0.423

Input: Requested read-out: PBM E-score. Entry: "AACGGGTC"
Output: -0.155

Input: So what does the record say about PBM E-score for "GTGTCTTA" ?
Output: 0.04

Input: # lookup: PBM E-score of "CTACGAAC"
Output: 0.0953

Input: Given the entry "CACACTGG" , report its measured PBM E-score.
Output: -0.259

Input: What does the record list as PBM E-score for "GTACGAAA" ?
Output: 0.249

Input: Suppose we examine the sequence "ATAGACAA" ; what PBM E-score value has been reported?
Output: 0.41

Input: Entry under review: "AAGGCCAA" . Reported PBM E-score?
Output: -0.2

Input: // returns reported PBM E-score for input "ATAGACGA"
Output: 0.0929

Input: Which measured PBM E-score value corresponds to "CGGGGACC" ?
Output: -0.1

Input: Bench note: what PBM E-score did "ACGAGGAC" show?
Output: 0.324

Input: Sample "GACATCCC" — what was its PBM E-score?
Output: 0.374

Input: Quick one: PBM E-score for "GAACTGAA" ?
Output: -0.00121

Input: Dear colleague, I am looking for the recorded PBM E-score of the following sequence: "CTCAGGAC"
Output: 0.243

Input: PBM E-score for "TAATGTAA" ?
Output: 0.114

Input: Fill in the blank: the reported PBM E-score of "GTCAGGAA" is ____.
Output: 0.0369

Input: Reported PBM E-score, sequence "CGATGCAC" : ____
Output: -0.295

Input: What value of PBM E-score has been recorded for this entry: "GAGAACTC"
Output: -0.162

Input: Suppose we examine the sequence "AAGGGCGG" ; what PBM E-score value has been reported?
Output: -0.21

Input: Need PBM E-score, item "CACATGAA"
Output: 0.0613

Input: Data request, read-out PBM E-score, for "CGGGGACA"
Output: 0.396

Input: Report PBM E-score for "AAGCGCCC" please.
Output: -0.264

Input: State the recorded PBM E-score for this entry: "ATGTCTGA"
Output: 0.425

Input: Any idea what its PBM E-score is? The sequence is "AATATGTA"
Output: 0.335

Input: Sample "ATCAGGAG" — what was its PBM E-score?
Output: -0.0236

Input: PBM E-score for "CATATGTC" ?
Output: 0.449
